PROTOCOL: qHTS assay to identify small molecule antagonists of the estrogen related receptor signaling pathway with the pleiotropic PPARgamma coactivator (PGC) from Tox21 10K library (AID 1224841); also: actives are mostly falling curves and most rising ones were filed inactive; nearly all actives have a fitted effect of over 50% in size; also: potency is read from the fitted curve at half-maximal effect
CONDITION DETAILS: PGC/ERR reporter cell line, ONE-Glo luciferase, 18 h; series mostly up to 92.4 µM
Results filed as inconclusive are left out. Activity calls are given as the source filed them. No rule for the calls is given here.
ENDPOINT: Potency

Example results:
COMPOUND: CC(=O)OCc1ccc2c(c1)OCO2
ASSAY VALUE: inactive
--
COMPOUND: CCCCCCCCCCCCCC(=O)O
ASSAY VALUE: inactive
--
COMPOUND: OB(O)O
ASSAY VALUE: inactive
--
COMPOUND: CC(COCC(C)OC(=O)c1ccccc1)OC(=O)c1ccccc1 (configuration not stated)
ASSAY VALUE: inactive
--
COMPOUND: Cc1cc(C)c(O)c(C)c1
ASSAY VALUE: inactive
--
COMPOUND: NC1CCCCC1N (configuration not stated)
ASSAY VALUE: inactive
--
COMPOUND: O=[N+]([O-])c1cc(C(F)(F)F)ccc1Cl
ASSAY VALUE: inactive
--
COMPOUND: Nc1nc(N)c2nc(-c3ccccc3)c(N)nc2n1
ASSAY VALUE: inactive
--
COMPOUND: COc1cc(NC(=O)CC(C)=O)c(OC)cc1Cl
ASSAY VALUE: 38.7 µM (active)
--
COMPOUND: CCCCCC(C)=O
ASSAY VALUE: inactive

Look up Potency: C=C1C[C@]23C[C@@]1(O)CC[C@H]2[C@@]12C=C[C@H](O)[C@@](C)(C(=O)O1)[C@H]2[C@@H]3C(=O)O
inactive

Look up Potency: O=Cc1ccc(CO)o1
inactive

Look up Potency: CC(=O)OCCC(C)C
inactive

Look up Potency: COC(=O)OC
inactive

Look up Potency: O=C(c1ccccc1)c1ccc(O)c(O)c1O
inactive

Look up Potency: O=[N+]([O-])c1ccccc1C(F)(F)F
inactive

Look up Potency: CC(=O)OC(C)(C)C1CC=C(C)CC1 (configuration not stated)
inactive
